- subjectOfTest: recombinant USP30 (amino acids 57-517 of the human sequence) (Homo sapiens (Human))
- method: In vitro USP30 biochemical assay (Ubiquitin-Rhodamine substrate)
- conditionInfo: 1.5 nM recombinant USP30, 25 nM Ubiquitin-Rhodamine, fluorescence
I'd be grateful if you could share measured IC50 for these entries.

Recorded IC50 (compound COc1cc(NC(=O)[C@@H]2C[C@@H](C3CCCCC3)CN2C(=O)c2ccc(F)cc2)cnc1S(=O)(=O)NC(C)(C)C ): 1 to 10 µM

Recorded IC50 (compound COc1cc(NC(=O)[C@H](CC2CCN(C)CC2)NC(=O)c2ccc(F)cc2)cnc1S(=O)(=O)NC(C)(C)CO ): 1 to 10 µM

Recorded IC50 (compound COc1cc(NC(=O)[C@H](Cc2ccccc2)NC(=O)c2ccc(F)cc2)ccc1S(=O)(=O)NC(C)(CO)CO ): 0.05 to 1 µM

Recorded IC50 (compound CC(C)(C)C[C@H](NC(=O)c1ccc(F)cc1)C(=O)Nc1ccc(S(=O)(=O)NC(C)(C)C)cc1 ): 0.05 to 1 µM

Recorded IC50 (compound COC[C@H](NC(=O)c1ccc(F)cc1)C(=O)Nc1ccc(S(=O)(=O)NC2COC2)cc1 ): 1 to 10 µM

Recorded IC50 (compound CC(C)C[C@H](NC(=O)c1ccc(F)cc1)C(=O)Nc1ccc(S(=O)(=O)NC(C)(C)C(F)(F)F)cc1 ): 0.05 to 1 µM

Recorded IC50 (compound O=C(N[C@@H](Cc1ccccc1)C(=O)Nc1ccc(S(=O)(=O)NCc2ccncn2)cc1)c1ccc(F)cc1 ): 0.05 to 1 µM

Recorded IC50 (compound COc1cc(NC(=O)[C@H](Cc2ccccc2)NC(=O)c2ccc(F)cc2)c(Cl)cc1S(=O)(=O)NC1(CO)CC1 ): 1 to 10 µM

* * *

I'd be grateful if you could share measured IC50 for these entries.
- subjectOfTest: USP30 (Homo sapiens (Human))
- method: Dundee MALDI-TOF mass spectrometry assay (K48-linked diubiquitin cleavage)
- Type: biochemical
- conditionInfo: USP30 25 ng/μl, K48-linked diubiquitin 5.6 μM, read-out: USP30 IC50 μM (avg)

Recorded IC50 (compound CC(C)C(=O)N1CCC(C[C@H](NC(=O)c2ccc(F)cc2)C(=O)Nc2ccc(S(=O)(=O)NC(C)(C)C)cc2)CC1 [Compound I-161] ): < 0.05 µM

Recorded IC50 (compound COc1cc(NC(=O)[C@H](CC2CCN(C)CC2)NC(=O)c2ccc(F)cc2)ccc1S(=O)(=O)NC1CCOCC1 [Compound I-143] ): 0.05 to 1 µM

Recorded IC50 (compound COc1cc(NC(=O)[C@H](CC2CCNCC2)NC(=O)c2ccc(F)cc2)ccc1S(=O)(=O)NC(C)(C)CO [Compound I-159] ): 0.05 to 1 µM

Recorded IC50 (compound COc1cc(NC(=O)[C@H](Cc2ccccc2)NC(=O)c2ccc(F)cc2)ccc1S(=O)(=O)N[C@H](C)CO [Compound I-137] ): < 0.05 µM

* * *

I'd be grateful if you could share measured IC50 for these entries.
- subjectOfTest: recombinant USP30 (amino acids 57-517 of the human sequence) (Homo sapiens (Human), UniProt Q70CQ3)
- method: In vitro USP30 biochemical assay (Ubiquitin-Rhodamine substrate)
- conditionInfo: […] recombinant USP30, 25 nM Ubiquitin-Rhodamine, fluorescence

Recorded IC50 (molecule N#CCN1CC[C@@H](NC(=O)[C@H](Cc2ccccc2)NC(=O)c2ccc(F)cc2)C1 ): > 10 µM

Recorded IC50 (molecule CC(C)(C)NS(=O)(=O)c1ccc(NC(=O)[C@H](Cc2ccccc2)NC(=O)c2cc[nH]c2)cc1 ): > 10 µM

Recorded IC50 (molecule CC(C)(C)NS(=O)(=O)c1ccc(NC(=O)C(CC(N)=O)NC(=O)c2ccc(F)cc2)cc1 (centres unmarked) ): > 10 µM

Recorded IC50 (molecule CC(C)(C)NS(=O)(=O)c1ccc(NC(=O)[C@@H](CC2COC2)NC(=O)c2ccc(F)cc2)cc1 ): > 10 µM

Recorded IC50 (molecule Cn1cnc(CNS(=O)(=O)c2ccc(NC(=O)[C@H](Cc3ccccc3)NC(=O)c3ccc(F)cc3)cc2)c1 ): < 0.05 µM

Recorded IC50 (molecule O=C(Nc1ccc(S(=O)(=O)NC2COC2)cc1)[C@@H]1C[C@@H](O)CN1C(=O)c1ccc(F)cc1 ): > 10 µM

Recorded IC50 (molecule CC(C)(C)NS(=O)(=O)c1ccc(NC(=O)[C@H](CC2CCOCC2)NC(=O)c2ccc(F)cc2)cn1 ): < 0.05 µM

Recorded IC50 (molecule CC(C)(C)NS(=O)(=O)c1ccc(NC(=O)[C@H](CC2CCN(C#N)CC2)NC(=O)c2ccc(F)cc2)cc1 ): < 0.05 µM

* * *

- subjectOfTest: recombinant USP30 (amino acids 57-517 of the human sequence) (Homo sapiens (Human))
- method: In vitro USP30 biochemical assay (Ubiquitin-Rhodamine substrate)
- conditionInfo: […] recombinant USP30, 25 nM Ubiquitin-Rhodamine, fluorescence
measureName: IC50

Recorded IC50 (molecule N#CC1CC[C@@H](NC(=O)[C@H](Cc2ccccc2)NC(=O)c2ccc(F)cc2)C1 (some centres unmarked) ): > 10 µM

Recorded IC50 (molecule O=C(N[C@@H](Cc1ccccc1)C(=O)N[C@@H]1CCN(S(=O)(=O)NC2CCOC2)C1)c1ccc(F)cc1 (some centres unmarked) ): > 10 µM

Recorded IC50 (molecule CC(C)C[C@H](NC(=O)c1ccccc1)C(=O)NC1CN(C#N)C1 ): < 0.05 µM

Recorded IC50 (molecule CC(=O)N1CCC(NC(=O)[C@H](Cc2ccccc2)NC(=O)c2ccc(F)cc2)CC1 ): > 10 µM

Recorded IC50 (molecule CC(C)C[C@@H](NC(=O)c1ccc(F)cc1)C(=O)Nc1ccc(S(=O)(=O)NC(C)(C)C)cc1 ): > 10 µM

Recorded IC50 (molecule CO[C@@H]1C[C@@H](C(=O)Nc2ccc(S(=O)(=O)NC(C)(C)CO)cc2)N(C(=O)c2ccc(F)cc2)C1 ): > 10 µM

Recorded IC50 (molecule CC(C)(C)NS(=O)(=O)c1ccc(NC(=O)[C@H](CC2CCCCC2)NC(=O)c2ccc(F)cc2)cc1 ): < 0.05 µM

Recorded IC50 (molecule O=C(N[C@@H](CC1CCOCC1)C(=O)Nc1ccc(S(=O)(=O)NC2CCCC2)nc1)c1ccc(F)cc1 ): < 0.05 µM

* * *

- subjectOfTest: recombinant USP30 (amino acids 57-517 of the human sequence) (Homo sapiens (Human))
- method: In vitro USP30 biochemical assay (Ubiquitin-Rhodamine substrate)
- conditionInfo: 1.5 nM recombinant USP30, 25 nM Ubiquitin-Rhodamine, fluorescence
measureName: IC50

Recorded IC50 (compound CN1CCC(C[C@H](NC(=O)c2ccc(F)cc2)C(=O)Nc2ccc(S(=O)(=O)NC(C)(C)C)cc2)CC1 [Compound I-41] ): 0.05 to 1 µM

Recorded IC50 (compound CC(C)(C)NS(=O)(=O)N1CCC(NC(=O)[C@H](Cc2ccccc2)NC(=O)c2ccc(F)cc2)CC1 [Compound I-58] ): 1 to 10 µM

Recorded IC50 (compound CC(C)(C)NS(=O)(=O)c1ccc(NC(=O)[C@H](Cc2ccccc2)NC(=O)c2nccs2)cc1 [Compound I-168] ): 0.05 to 1 µM

Recorded IC50 (compound CC(C)CC[C@H](NC(=O)c1ccc(F)cc1)C(=O)Nc1ccc(S(=O)(=O)NC2COC2)cc1 [Compound I-24] ): 0.05 to 1 µM

Recorded IC50 (compound COc1cc(NC(=O)[C@H](CC(C)C)NC(=O)c2ccc(F)cc2)cnc1S(=O)(=O)NC(C)(C)C [Compound I-15] ): 0.05 to 1 µM

Recorded IC50 (compound CC(C)(C)NS(=O)(=O)c1ccc(NC(=O)[C@@H]2C[C@H](O)CN2C(=O)c2ccc(F)cc2)cc1 [Compound I-279] ): 1 to 10 µM

Recorded IC50 (compound CC(CO)(CO)NS(=O)(=O)c1ccc(NC(=O)[C@H](Cc2ccccc2)NC(=O)c2ccc(F)cc2)cc1 [Compound I-132] ): 0.05 to 1 µM

Recorded IC50 (compound N#CN1CC[C@H](NC(=O)[C@H](Cc2ccccc2)NC(=O)c2ccc(F)cc2)C1 [Compound I-123] ): 1 to 10 µM

Recorded IC50 (compound N#CN1CC(NC(=O)[C@H](Cc2ccccc2)NC(=O)c2ccc(F)cc2)C1 [Compound I-241] ): 0.05 to 1 µM

Recorded IC50 (compound C[C@H](CO)NS(=O)(=O)c1ccc(NC(=O)[C@H](Cc2ccccc2)NC(=O)c2ccc(F)cc2)cn1 [Compound I-151] ): 0.05 to 1 µM

* * *

- subjectOfTest: USP30 (Homo sapiens (Human), UniProt Q70CQ3)
- Sequence (Q70CQ3 whole entry): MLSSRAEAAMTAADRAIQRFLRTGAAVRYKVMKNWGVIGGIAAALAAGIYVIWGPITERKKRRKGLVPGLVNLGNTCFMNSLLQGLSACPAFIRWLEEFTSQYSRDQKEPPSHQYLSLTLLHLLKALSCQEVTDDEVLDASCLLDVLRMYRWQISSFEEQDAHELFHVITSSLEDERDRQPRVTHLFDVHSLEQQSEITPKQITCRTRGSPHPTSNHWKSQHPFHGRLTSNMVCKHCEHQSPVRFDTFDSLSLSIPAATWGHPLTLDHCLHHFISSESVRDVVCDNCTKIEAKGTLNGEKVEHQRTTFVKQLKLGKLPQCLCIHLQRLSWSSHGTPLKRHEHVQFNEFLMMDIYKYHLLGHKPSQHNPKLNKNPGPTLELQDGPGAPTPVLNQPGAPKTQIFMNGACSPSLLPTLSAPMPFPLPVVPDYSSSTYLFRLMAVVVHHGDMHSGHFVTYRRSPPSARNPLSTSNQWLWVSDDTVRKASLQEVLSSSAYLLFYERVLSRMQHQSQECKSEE
- method: Dundee MALDI-TOF mass spectrometry assay (K48-linked diubiquitin cleavage)
- Format: biochemical
- conditionInfo: USP30 25 ng/μl, K48-linked diubiquitin 5.6 μM, read-out: USP30 IC50 μM (avg)
I'd be grateful if you could share measured IC50 for these entries.

Recorded IC50 (compound COc1cc(NC(=O)[C@H](CC2CCN(C)CC2)NC(=O)c2ccc(F)cc2)ccc1S(=O)(=O)NC(C)(C)C ): < 0.05 µM

Recorded IC50 (compound C[C@@H](CO)NS(=O)(=O)c1ccc(NC(=O)[C@H](Cc2ccccc2)NC(=O)c2ccc(F)cc2)cc1 ): < 0.05 µM

Recorded IC50 (compound COc1cc(NC(=O)[C@H](CC2CCOCC2)NC(=O)c2ccc(F)cc2)cnc1S(=O)(=O)NC1CCCC1 ): < 0.05 µM

Recorded IC50 (compound CC(=O)CN1CCC(C[C@H](NC(=O)c2ccc(F)cc2)C(=O)Nc2ccc(S(=O)(=O)NC(C)(C)C)cc2)CC1 ): < 0.05 µM

Recorded IC50 (compound COc1cc(NC(=O)[C@H](Cc2ccccc2)NC(=O)c2ccc(F)cc2)ccc1S(=O)(=O)N[C@@H](C)CO ): < 0.05 µM

Recorded IC50 (compound CN1CCC(C[C@H](NC(=O)c2ccc(F)cc2)C(=O)Nc2ccc(S(=O)(=O)NC(C)(C)C(F)(F)F)cc2)CC1 ): < 0.05 µM

Recorded IC50 (compound CC(C)(CF)NS(=O)(=O)c1ccc(NC(=O)[C@H](CC2CCNCC2)NC(=O)c2ccc(F)cc2)cc1 ): < 0.05 µM

Recorded IC50 (compound CC(C)(C)NS(=O)(=O)c1ccc(NC(=O)[C@H](Cc2ccccc2)NC(=O)c2ccc(F)nc2)cc1 ): < 0.05 µM

Recorded IC50 (compound O=C(N[C@@H](CC1CCOCC1)C(=O)Nc1ccc(S(=O)(=O)NC2CCCC2)nc1)c1ccc(F)cc1 ): < 0.05 µM

Recorded IC50 (compound CC(CO)(CO)NS(=O)(=O)c1ccc(NC(=O)[C@H](Cc2ccccc2)NC(=O)c2ccc(F)cc2)cc1 ): < 0.05 µM

Recorded IC50 (compound O=C(N[C@@H](CC1CCOCC1)C(=O)Nc1ccc(S(=O)(=O)NC2CCOCC2)cc1)c1ccc(F)cc1 ): < 0.05 µM

Recorded IC50 (compound CC(=O)O[C@@H]1C[C@@H](C(=O)Nc2ccc(S(=O)(=O)NC(C)(C)C)cc2)N(C(=O)c2ccc(F)cc2)C1 ): 0.05 to 1 µM

Recorded IC50 (compound COc1cc(NC(=O)[C@H](CC2CCN(C)CC2)NC(=O)c2ccc(F)cc2)ccc1S(=O)(=O)NC(C)(C)CO ): 0.05 to 1 µM

Recorded IC50 (compound CC(C)(C)NS(=O)(=O)c1cccc2c(NC(=O)[C@H](Cc3ccccc3)NC(=O)c3ccc(F)nc3)cccc12 ): < 0.05 µM

Recorded IC50 (compound CN1CCC(C[C@H](NC(=O)c2ccc(F)cc2)C(=O)Nc2ccc(S(=O)(=O)NC(C)(C)C)nc2)CC1 ): < 0.05 µM

Recorded IC50 (compound CN1CCC(C[C@H](NC(=O)c2ccc(F)cc2)C(=O)Nc2ccc(S(=O)(=O)NC(C)(C)CO)nc2)CC1 ): 0.05 to 1 µM

Recorded IC50 (compound COc1cc(NC(=O)[C@H](CC2CCNCC2)NC(=O)c2ccc(F)cc2)ccc1S(=O)(=O)NC(C)(C)C ): < 0.05 µM

Recorded IC50 (compound COc1cc(NC(=O)[C@H](Cc2ccccc2)NC(=O)c2ccc(F)cc2)ccc1S(=O)(=O)NC(C)(CO)CO ): < 0.05 µM
